- subject.of.test: LTD4 receptor (Cavia porcellus)
- Construct: from tissue; host or cells: lung membranes of male Hartley guinea pigs
- Sequence (Q2NNR5 1-340): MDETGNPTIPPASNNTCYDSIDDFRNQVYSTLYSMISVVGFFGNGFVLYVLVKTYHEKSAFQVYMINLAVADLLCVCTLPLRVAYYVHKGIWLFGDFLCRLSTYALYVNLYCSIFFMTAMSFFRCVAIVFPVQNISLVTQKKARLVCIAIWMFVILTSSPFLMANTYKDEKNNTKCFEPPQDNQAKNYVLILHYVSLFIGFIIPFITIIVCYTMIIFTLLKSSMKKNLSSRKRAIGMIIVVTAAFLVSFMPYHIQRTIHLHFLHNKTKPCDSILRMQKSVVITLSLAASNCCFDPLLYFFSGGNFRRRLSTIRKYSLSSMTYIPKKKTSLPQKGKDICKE
- assay.explanation: LTD4 receptor binding assay using guinea pig lung membrane preparations
- assay.context: read-out: LTD4 Receptor Binding Percent Inhibition, Test #2; 10 μM; triplicate; 30 min, 24° C.
- Procedure: MEMBRANE PREPARATIONS: For each membrane preparation, 10-11 male Hartley guinea pigs, weighing less than 350 gm, were sacrificed by guillotine. The lungs were rapidly removed and placed in ice-cold 50 mM Trisma 7.0 buffer. […] These values were logit-transformed and linear regression was performed on the dose-response data. […] IC50 values were calculated from the regression equation for the line. […] tested were intially solubilized in DMSO. Each compound was evaluated at […]
measurement.label: inhibition at 10 µM (%)
Entry rule: numbers only, all in %.

CCCc1c(OCCCOc2ccc(C(C)=O)c(OC)c2CCC)ccc2c1OC(C(=O)O)CC2 (centres unmarked) [Example 1]    16.4
CCCc1c(OCCCOc2ccc(C(C)=O)c(OC)c2CCC)ccc2c1OC(CCC(=O)O)CC2 (centres unmarked) [Example 20]    23.5
CCCc1c(OCCCOc2ccc3c(c2)OC(C(=O)O)CC3)ccc(C(C)=O)c1OC (centres unmarked) [Example 6]    26
CCCc1c(OCCCOc2ccc3c(c2CCC)OC(C)(CCC(=O)O)CC3=O)ccc(C(C)=O)c1OC (centres unmarked) [Example 16]    24.1

For the next question, use this compound.
Req: Fill in the blank: the reported inhibition at 10 µM of CCCc1c(OCCCOc2ccc3c(=O)cc(C(=O)O)oc3c2CCC)ccc(C(C)=O)c1OC [Example 7] is ____.
Resp: 34.4

---

- subject.of.test: guinea pig ileum (Cavia porcellus, UniProt Q2NNR5)
- Construct: from tissue; host or cells: guinea pig ileum segments
- assay.explanation: LTD4 antagonism in guinea pig ileum (contraction)
- assay.context: read-out: Guinea Pig Ileum Contraction pA2 (converted)
This listing pairs molecules with measured Kb.
Entry rule: numbers only, all in nM.

Some entries whose results are on file:
CCCc1c(OCCCOc2ccc3c(=O)cc(C(=O)O)oc3c2CCC)ccc(C(C)=O)c1OC    182
CCCc1c(OCCCOc2ccc(C(C)=O)c(OC)c2CCC)ccc2c1OC(CCC(=O)O)CC2 (stereo not shown)    316

For the next question, use this molecule.
Req: Fill in the blank: the reported Kb of CCCc1c(OCCCOc2ccc3c(c2CCC)OC(C(=O)O)CC3)ccc(C(C)=O)c1O (stereo not shown) [reference compound] is ____.
Resp: 25.1

---

- subject.of.test: LTD4 receptor (Cavia porcellus, UniProt Q2NNR5)
measurement.label: IC50 (µM)
Entry rule: numbers only, all in µM.

Req: Any idea what IC50 came out for CCCc1c(OCC(O)COc2ccc3c(=O)cc(C(=O)O)oc3c2CCC)ccc(C(C)=O)c1O (stereo not shown) [FPL 55712, reference compound] on LTD4 receptor (Cavia porcellus, UniProt Q2NNR5)?
Resp: 10.4

---

- subject.of.test: LTD4 receptor (Cavia porcellus, UniProt Q2NNR5)
- Construct: from tissue; host or cells: lung membranes of male Hartley guinea pigs
- assay.explanation: LTD4 receptor binding assay using guinea pig lung membrane preparations
- assay.context: read-out: LTD4 Receptor Binding Percent Inhibition, Test #1; 10 μM; triplicate; 30 min, 24° C.
This listing pairs compounds with measured inhibition at 10 µM.
Entry rule: numbers only, all in %.

Some entries whose results are on file:
CCCc1c(OCCCOc2ccc3c(c2)OC(C(=O)O)CC3)ccc(C(C)=O)c1OC (centres unmarked) [Example 6]    1.63
CCCc1c(OCCCOc2ccc(C(C)=O)c(OC)c2CCC)ccc2c1OC(CCC(=O)O)CC2 (centres unmarked) [Example 20]    13
CCCc1c(OCCCOc2ccc3c(=O)cc(C(=O)O)oc3c2CCC)ccc(C(C)=O)c1OC [Example 7]    28.9
CCCc1c(OCCCOc2ccc(C(C)=O)c(OC)c2CCC)ccc2c1OC(C(=O)O)CC2 (centres unmarked) [Example 1]    4.07

For the next question, use this compound.
Req: Fill in the blank: the reported inhibition at 10 µM of CCCc1c(OCCCOc2ccc3c(c2CCC)OC(C)(CCC(=O)O)CC3=O)ccc(C(C)=O)c1OC (centres unmarked) [Example 16] is ____.
Resp: 16.5

---

- subject.of.test: LTB4 receptor (Homo sapiens)
- Construct: Neutrophils were purified from venous blood of normal human donors; endogenous in cells; host or cells: purified human blood neutrophils (intact cells)
- assay.explanation: LTB4 receptor binding assay ((3H) LTB4, human neutrophils)
- assay.context: Table 1
pIC50: −log10 of the molar value.
Each entry gets F if its pIC50 stays under 6, and T if its pIC50 is 6 or above.

C=CCc1c(OCCCOc2ccc3c(c2CCC)OC(C(=O)O)CC3)ccc(C(C)=O)c1OC (centres unmarked)    T
CCCc1c(OCCCOc2ccc3c(c2CCC)OC(C)(CCC(=O)O)CC3=O)ccc(C(C)=O)c1OC (centres unmarked)    T
CCCc1c(OCCCCCOc2ccc(C(C)=O)c(OC)c2CCC)ccc2c1OC(C(=O)O)CC2 (centres unmarked)    T

Query compound follows.
Req: Does pIC50 meet or surpass 6 for CCCc1c(OCCCOc2ccc(C(C)=O)c(OC)c2CCC)ccc2c1OC(CCC(=O)O)CC2 (centres unmarked) ?
Resp: T

---

- subject.of.test: LTB4 receptor (Homo sapiens)
- Construct: Neutrophils were purified from venous blood of normal human donors; endogenous in cells
- assay.explanation: LTB4 receptor binding assay ((3H) LTB4, human neutrophils)
- assay.context: Table 1
measurement.label: IC50 (nM)
Entry rule: numbers only, all in nM.

CCCc1c(OCCCOc2ccc(C(=O)C(C)C)c(OC)c2CCC)ccc2c1OC(C(=O)O)CC2 (stereo not shown)    1200

Req: Fill in the blank: the reported IC50 of CCCc1c(OCCCOc2ccc3c(=O)cc(C(=O)O)oc3c2CCC)ccc(C(C)=O)c1OC is ____.
Resp: 500

Req: Fill in the blank: the reported IC50 of CCCc1c(OCCCOc2ccc(C(C)=O)c(OC)c2CCC)ccc2c1OC(C(=O)NC)CC2 (stereo not shown) is ____.
Resp: 1800

Req: Fill in the blank: the reported IC50 of CCCc1c(OC2CCC(Oc3ccc(C(C)=O)c(OC)c3CCC)C2)ccc2c1OC(C(=O)O)CC2 (stereo not shown) is ____.
Resp: 5000

---

- subject.of.test: LTB4 receptor (Homo sapiens, UniProt Q15722)
- Construct: Neutrophils were purified from venous blood of normal human donors; endogenous in cells
- Sequence (Q15722 whole entry): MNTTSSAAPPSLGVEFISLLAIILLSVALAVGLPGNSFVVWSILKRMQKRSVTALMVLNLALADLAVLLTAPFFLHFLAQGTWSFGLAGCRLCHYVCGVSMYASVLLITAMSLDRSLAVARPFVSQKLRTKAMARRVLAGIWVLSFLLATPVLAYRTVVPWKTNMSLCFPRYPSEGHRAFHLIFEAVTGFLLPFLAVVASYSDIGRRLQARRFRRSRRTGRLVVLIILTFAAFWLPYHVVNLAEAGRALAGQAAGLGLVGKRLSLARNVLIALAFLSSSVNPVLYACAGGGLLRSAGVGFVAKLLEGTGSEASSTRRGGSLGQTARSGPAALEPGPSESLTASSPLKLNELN
- assay.explanation: LTB4 receptor binding assay ((3H) LTB4, human neutrophils)
- assay.context: Table 1
This listing pairs compounds with measured IC50.
Entry rule: numbers only, all in nM.

Some entries whose results are on file:
CCCc1c(OCCCOc2ccc(C(C)=O)c(OC)c2CCC)ccc2c1CC(C(=O)O)CC2 (stereo not drawn) [Example 18]    370
CCCc1c(OCC#CCOc2ccc3c(c2CCC)OC(C)(CCC(=O)O)CC3=O)ccc(C(C)=O)c1OC (stereo not drawn) [Example 17]    800

Req: Fill in the blank: the reported IC50 of CCCc1c(OCCCOc2ccc(C(C)=O)c(OCC)c2CCC)ccc2c1OC(C(=O)O)CC2 (stereo not drawn) [Example 21] is ____.
Resp: 1000

Req: Fill in the blank: the reported IC50 of CCCc1c(OCCCOc2ccc3c(=O)cc(CCC(=O)O)oc3c2CCC)ccc(C(C)=O)c1OC [Example 22] is ____.
Resp: 500

Req: Fill in the blank: the reported IC50 of CCCc1c(OCCCOc2ccc3c(c2)OC(C(=O)O)CC3)ccc(C(C)=O)c1OC (stereo not drawn) [Example 6] is ____.
Resp: 2600

Req: Fill in the blank: the reported IC50 of CCCc1c(OCCCOc2ccc(C(C)=O)c(OC)c2CC2CC2)ccc2c1OC(C(=O)O)CC2 (stereo not drawn) [Example 3] is ____.
Resp: 190
